# assay-name: Cytotoxicity against african green monkey Vero cells after 72 hrs by MTT assay
# Type: cell-based
# conditions-used: chlorocebus sabaeus
measured-property: log10 CC50 at 72 h (log10 of the value in µg/mL)

compound	measured-property	numeric-readout
COc1c(N2CCN(C/C(C)=N/NC(C)=O)C(C)C2)c(F)cc2c(=O)c(C(=O)O)cn(C3CC3)c12 (stereo not drawn)	log10 CC50 at 72 h	2.85
COc1c(N2CCN(CCC#N)C(C)C2)c(F)cc2c(=O)c(C(=O)O)cn(C3CC3)c12 (stereo not drawn)	log10 CC50 at 72 h	2.70
CCO/N=C(\C)CCN1CCN(c2c(F)cc3c(=O)c(C(=O)O)cn(C4CC4)c3c2OC)CC1C (stereo not drawn)	log10 CC50 at 72 h	1.95
COc1c(N2CCN(C/C(C)=N/Nc3ccccc3)C(C)C2)c(F)cc2c(=O)c(C(=O)O)cn(C3CC3)c12 (stereo not drawn)	log10 CC50 at 72 h	1.05
COc1c(N2CCN(C/C(C)=N/O)C(C)C2)c(F)cc2c(=O)c(C(=O)O)cn(C3CC3)c12 (stereo not drawn)	log10 CC50 at 72 h	2.25
COc1c(N2CCN(C/C(C)=N/NC(=O)c3ccncc3)C(C)C2)c(F)cc2c(=O)c(C(=O)O)cn(C3CC3)c12 (stereo not drawn)	log10 CC50 at 72 h	2.40
CO/N=C(\C)CCN1CCN(c2c(F)cc3c(=O)c(C(=O)O)cn(C4CC4)c3c2OC)CC1C (stereo not drawn)	log10 CC50 at 72 h	2.20

###

# System: Streptococcus pneumoniae
# assay-name: Antibacterial activity against Streptococcus pneumoniae 08-2 after 18 to 24 hrs by NCCLS M100-S11 two fold serial dilution method
# Format: functional
measured-property: MIC

molecule	result
COc1c(N2CCN(CC#N)C(C)C2)c(F)cc2c(=O)c(C(=O)O)cn(C3CC3)c12 (centres undefined)	8 µg/mL
CO/N=C(\C)CN1CCN(c2c(F)cc3c(=O)c(C(=O)O)cn(C4CC4)c3c2OC)CC1C (centres undefined)	64 µg/mL
COc1c(N2CCN(CC/C(C)=N/Nc3ccccc3)C(C)C2)c(F)cc2c(=O)c(C(=O)O)cn(C3CC3)c12 (centres undefined)	0.5 µg/mL
COc1c(N2CCN(CC(C)=O)C(C)C2)c(F)cc2c(=O)c(C(=O)O)cn(C3CC3)c12 (centres undefined)	32 µg/mL
CCO/N=C(\C)CCN1CCN(c2c(F)cc3c(=O)c(C(=O)O)cn(C4CC4)c3c2OC)CC1C (centres undefined)	128 µg/mL
COc1c(N2CCN(C/C(C)=N/Nc3ccccc3)C(C)C2)c(F)cc2c(=O)c(C(=O)O)cn(C3CC3)c12 (centres undefined)	0.25 µg/mL
COc1c(N2CCN(CC/C(C)=N/O)C(C)C2)c(F)cc2c(=O)c(C(=O)O)cn(C3CC3)c12 (centres undefined)	32 µg/mL
COc1c(N2CCN(O)C(C)C2)c(F)cc2c(=O)c(C(=O)O)cn(C3CC3)c12 (centres undefined)	16 µg/mL
COc1c(N2CCN(C/C(C)=N/NC(C)=O)C(C)C2)c(F)cc2c(=O)c(C(=O)O)cn(C3CC3)c12 (centres undefined)	8 µg/mL

###

# Test system: Klebsiella pneumoniae
# assay-name: Antibacterial activity against Klebsiella pneumoniae 09-23 after 18 to 24 hrs by NCCLS M100-S11 two fold serial dilution method
# Type: functional

molecule	result-qualifier	MIC / µg/mL
COc1c(N2CCN(CCC(C)=O)C(C)C2)c(F)cc2c(=O)c(C(=O)O)cn(C3CC3)c12 (stereo not given)	=	0.5
CCOC(=O)CN1CCN(c2c(F)cc3c(=O)c(C(=O)O)cn(C4CC4)c3c2OC)CC1C (stereo not given)	>	128
COc1c(N2CCN(C/C(C)=N/O)C(C)C2)c(F)cc2c(=O)c(C(=O)O)cn(C3CC3)c12 (stereo not given)	>	128
COc1c(N2CCN(CC#N)C(C)C2)c(F)cc2c(=O)c(C(=O)O)cn(C3CC3)c12 (stereo not given)	=	2
COC(=O)CCN1CCN(c2c(F)cc3c(=O)c(C(=O)O)cn(C4CC4)c3c2OC)CC1C (stereo not given)	>	128
